Overview of recorded max activity for various compounds
# measurement_protocol: HepG2 hepatoma cell cytotoxicity, dose response, cytotoxicity control, CellTiter-Glo luminescence, cherry-pick, set 3 (AID 720589)
# condition_label: HepG2 viability, ATP luminescence (CellTiter-Glo), 72 h; at 26 µM; hits give low values; 0% = untreated, negative = ATP loss

compound	max activity, %
O=C(NCc1cccnc1)C1Cc2c(-c3ccc(Cl)cc3)ccnc2O1 (stereo not given)	-18.3
COc1ccc(C(C)(O)c2nc(-c3cccc(F)c3)cs2)cc1 (stereo not given)	-21.6
O=C(/C=C/c1ccc(Cl)cc1Cl)N(Cc1ccc(Cl)cc1)C1CCS(=O)(=O)C1 (stereo not given)	14
CN1C(=O)c2cc(NC(=O)c3ccc(Cl)cc3)ccc2OC[C@@H]2O[C@@H](CC(=O)NCc3cccc(F)c3)CC[C@H]21	-22.6
COc1ccc(C2=NNC(=Nc3cc(S(=O)(=O)N(C)C)ccc3C)SC2)c(OC)c1	-17.3

----------
Overview of recorded max activity for various compounds
# measurement_protocol: HepG2 hepatoma cell cytotoxicity, dose response, cytotoxicity control, CellTiter-Glo luminescence, cherry-pick, set 3 (AID 720589)
# condition_label: HepG2 viability, ATP luminescence (CellTiter-Glo), 72 h; at 26 µM; hits give low values; 0% = untreated, negative = ATP loss

compound	units_of_measure	max activity
O=c1[nH]c(/C=C2\C=Nc3ccccc32)c(O)n1Cc1ccccc1F	%	-19.8
COc1ccc(-c2sc3ccccc3c2-c2ccc(OCCN3CCCCC3)cc2)cc1	%	-22.5
COc1ccc(CCC(C)NCC2CCCCC2)cc1 (centres undefined)	%	-15.7
COc1cc(OC)cc(-c2cc3nc(C)c(CCC(=O)O)c(C)n3n2)c1	%	-9.81
CC1(CCc2ccccc2)NC(=O)N(CC(=O)N2CC(=O)Nc3ccccc32)C1=O (centres undefined)	%	-19.7
C(=Cc1cnc2ccccc2n1)c1ccc2c(c1)OCO2	%	-50.5
COc1cccc(OC)c1C(=O)Nc1cc(C)nn1-c1nc2ccccc2[nH]1	%	-39.9
C#CCOCCOCCOCCNc1nc(N2CCN(C(=O)CCCCCCCCCCNC(=O)Cn3cc(C[C@@H](C)O)nn3)CC2)nc(N2CCN(C(=O)CCCCCCCCCCNC(=O)[C@H](CO)n3cc(CCCSC)nn3)CC2)n1	%	39.2
O=C(CCCN1C(=O)S/C(=C\c2ccccc2)C1=O)NNC(=O)c1ccccc1O	%	-21.8

----------
# measurement_protocol: HepG2 hepatoma cell cytotoxicity, dose response, cytotoxicity control, CellTiter-Glo luminescence, cherry-pick, set 3 (AID 720589)
# condition_label: HepG2 viability, ATP luminescence (CellTiter-Glo), 72 h; at 2.85 µM; hits give low values; 0% = untreated, negative = ATP loss
parameter_measured: max activity (%)

O=C(Sc1cccc2cccnc12)c1ccccc1Br -31.3
O=c1[nH]c(=O)n([C@H]2C[C@H](O)[C@@H](CO)O2)cc1F -50.3
O=C(O)c1cccc(N/N=C/c2ccc(OC(F)(F)F)cc2)c1 -28.9
COc1cc(-c2coc3c(C(=O)NCc4ccc(C(F)(F)F)cc4)cccc23)ccc1O -25.6
CN=c1scc(-c2ccccc2F)n1/N=C/c1ccc(O)c(O)c1O -42.6
COc1ccc(NC(=O)c2cc3ccccc3oc2=O)cc1 -36.9
Cc1ccccc1N=CC1=C(O)c2ccccc2C1=O 18.8
CCOC(=O)Cc1csc(NC(=S)NC(=O)c2ccc(C)cc2)n1 11.3
O=C(CN1C(=O)C(=O)c2ccccc21)c1ccc(Cl)cc1 -20.2
CCOc1ccc(-c2cc(CCCC(=O)NCc3ccc(C)cc3)no2)cc1 -24.4
N#C[C@H]1[C@H](c2ccc(C#Cc3ccccc3F)cc2)[C@@H](CO)N1C(=O)C1CCOCC1 -21.8

----------
# measurement_protocol: HepG2 hepatoma cell cytotoxicity, dose response, cytotoxicity control, CellTiter-Glo luminescence, cherry-pick, set 3 (AID 720589)
# condition_label: HepG2 viability, ATP luminescence (CellTiter-Glo), 72 h; at 26 µM; hits give low values; 0% = untreated, negative = ATP loss
Overview of recorded max activity for various compounds

compound	units_of_measure	max activity
COC(=O)COc1ccc(-c2nccc(-c3ccccn3)n2)cc1	%	18.7
CCC1=Nc2cc(C(=O)NCC3CCCO3)ccc2Sc2ccc(Br)cc21 (stereo unspecified)	%	-32.3
Cc1ccc(N2C(=O)c3cccc4c(N)ccc(c34)C2=O)c2cccnc12	%	-20.7
O=C(CNC(c1ccccc1)c1ccccc1)Nc1ccccc1-c1ccccc1	%	10.7
Cc1cccc(NC(=O)CN2CCN(C(=O)CNC(=O)c3ccc(-c4ccccc4)cc3)CC2)c1C	%	-36.3
COc1ccc(CNc2ncc(-c3ccc(F)cc3)n2C)c2ccccc12	%	-23.1

----------
Overview of recorded max activity for various compounds
# measurement_protocol: HepG2 hepatoma cell cytotoxicity, dose response, cytotoxicity control, CellTiter-Glo luminescence, cherry-pick, set 3 (AID 720589)
# condition_label: HepG2 viability, ATP luminescence (CellTiter-Glo), 72 h; at 2.85 µM; hits give low values; 0% = untreated, negative = ATP loss
parameter_measured: max activity (%)

compound	units_of_measure	observed
Cc1ccsc1/C=N/Nc1cccc(C(=O)O)c1	%	-32.4
COc1cc(OC)cc(-c2cc3nc(C)c(CCC(=O)NCc4ccccc4)c(C)n3n2)c1	%	23.9
Cc1ccccc1N=Nc1c(O)n(C)c2ccccc12	%	-14.8
CCCCCCCCCCCCCCCCCCNc1ccn(C2OC(COP(=O)(O)OCC3OC(n4cc(F)c(=O)[nH]c4=O)CC3O)C(O)C2O)c(=O)n1 (stereo unspecified)	%	-36
O=C1c2ccc3c4c(ccc(c24)C(=O)N1c1cccc(O)c1)C(=O)N(c1cccc(O)c1)C3=O	%	-25.5
C[C@@H]1CN([C@H](C)CO)S(=O)(=O)c2ccc(C#CC3CC3)cc2O[C@@H]1CN(C)Cc1ccccc1F	%	-22
C[C@@H]1CN([C@H](C)CO)C(=O)c2cc(C#CCc3ccccc3)cnc2O[C@@H]1CN(C)Cc1cccc(F)c1	%	-31.8
C[C@@H]1CN([C@@H](C)CO)C(=O)Cc2cc(NC(=O)Nc3ccc(C(F)(F)F)cc3)ccc2O[C@@H]1CN(C)Cc1ccc(C(=O)Nc2ccccc2N)cc1	%	-33
CCCCCCN(C(=O)CCCCCN1C(=O)NC(c2ccc(Cl)cc2)C(C(=O)OCc2ccccc2)=C1C)C(C(=O)NCCCC)c1ccc(OCC(=O)OC)c(C(=O)OC)c1 (stereo unspecified)	%	-30.9
CCCc1nc2ccc(NC(=O)c3cccs3)cc2c(=O)n1Cc1ccccc1Cl	%	-32.5
Oc1c(Cl)cc(Cl)c(Cl)c1Cc1c(O)c(Cl)cc(Cl)c1Cl	%	-40.1
C[C@H](CO)N1C[C@H](C)[C@H](CN(C)Cc2ccc(C(=O)Nc3ccccc3N)cc2)Oc2ccc(NS(=O)(=O)c3cccs3)cc2C1=O	%	-29.1
CN(C)c1ccc2c(c1)[C@@H]1C[C@@H](CC(=O)NCc3ccc(Oc4ccccc4)cc3)O[C@H](CO)[C@@H]1O2	%	-31.7
CC(C)NC(=O)N(C)C[C@@H]1Oc2cc(C#Cc3ccc(F)cc3)ccc2S(=O)(=O)N([C@H](C)CO)C[C@H]1C	%	-21.1
COc1ccc(C(=O)NCCNc2nc3cc(C)cc(C)c3cc2C#N)c(OC)c1	%	-25.6
O=C(O)c1ccccc1C(=O)Nc1ccc(Oc2ccc3ccccc3c2)cc1	%	-28.2

----------
# measurement_protocol: HepG2 hepatoma cell cytotoxicity, dose response, cytotoxicity control, CellTiter-Glo luminescence, cherry-pick, set 3 (AID 720589)
# condition_label: HepG2 viability, ATP luminescence (CellTiter-Glo), 72 h; at 26 µM; hits give low values; 0% = untreated, negative = ATP loss

compound	units_of_measure	max activity
CCOc1cc(N2CCC(O)CC2)ccc1Nc1ncc2c(n1)N(C)c1ccccc1C(=O)N2C	%	-18.4
Cc1ccsc1/C=N/Nc1ccc(C(=O)O)cc1	%	-27.6
O=C(Nc1nc(-c2ccc(F)c(F)c2)cs1)c1ccc(OCC2CCCO2)cc1 (configuration not stated)	%	-28.7
Nc1sc(-c2ccccc2)cc1-c1n[nH]c(=S)n1C1CCCCC1	%	-25.2
O=C(O)c1ccc(N/N=C/c2ccc(OC(=O)c3cccc(Cl)c3)cc2)cc1	%	-33.2
N#C[C@H]1N[C@H](CO)[C@H]1c1ccc(C#Cc2ccc(F)cc2)cc1	%	-31.2
Cc1ccc(/C=N/Nc2ccc3ccccc3n2)o1	%	-46.4

----------
# measurement_protocol: HepG2 hepatoma cell cytotoxicity, dose response, cytotoxicity control, CellTiter-Glo luminescence, cherry-pick, set 3 (AID 720589)
# condition_label: HepG2 viability, ATP luminescence (CellTiter-Glo), 72 h; at 26 µM; hits give low values; 0% = untreated, negative = ATP loss

molecule	max activity / %
COC(=O)CC1(C(=O)OC)Oc2ccc(Br)cc2C(=O)N1c1cccc(Cl)c1Cl (stereo not given)	-23
CCOc1ccc(N=Nc2ccc(O)c3ncccc23)cc1	-26.7
C[C@@H]1CN([C@@H](C)CO)C(=O)Cc2cc(NC(=O)Cn3cnnn3)ccc2O[C@@H]1CN(C)Cc1ccc(Oc2ccccc2)cc1	25
COc1ccc(-c2cn(-c3ccc(OC)cc3)c3[n+]2-c2ccccc2CC3)cc1	-23.2
O=C1C(=O)N(CCS(=O)(=O)c2ccccc2)c2ccccc21	24.1
